- Test system: Vero E6
- method-summary: cell viability relative to DMSO; higher = less toxic
- condition-set: 72 h; 10000 nM
Kindly supply the reported cell viability values for the records listed here.
Give bare numbers, in %.

Here's what some known entries look like.
| molecule | study-system | measured |
| --- | --- | --- |
| COc1ccc(CNC(=O)Nc2ncc([N+](=O)[O-])s2)cc1 | Vero E6 | 97.2 |
| CC(C)C(=O)c1ccc(O)c(O)c1 | Vero E6 | 92.9 |

Would you mind giving cell viability for every molecule in the list below?
1. CCCN(CCC)[C@H]1CCc2cccc(O)c2C1 [8-hydroxy-DPAT]
2. Cc1c(CC(C)(C)C(=O)O)n(Cc2ccc(Cl)cc2)c2ccc(F)cc12
3. COc1ccc(-c2cc3c(C)nc(N)nc3n([C@H]3CC[C@H](OCCO)CC3)c2=O)cn1
4. CC[C@]1(O)C[C@H]2CN(CCc3c([nH]c4ccccc34)[C@@](C(=O)OC)(c3cc4c(cc3OC)N(C=O)[C@H]3[C@@](O)(C(=O)OC)[C@H](OC(C)=O)[C@]5(CC)C=CCN6CC[C@]43[C@@H]65)C2)C1 [Vincristine (sulfate)]
5. CCCCCNCC(N)=O [milacemide]
6. C[C@]12CC[C@H](O)CC1=CC[C@@H]1[C@@H]2CC[C@]2(C)C(=O)CC[C@@H]12

stdout:
[104, 108, 17, 29.8, 101, 95.2]

====

Kindly supply the reported cell viability values for the records listed here.
- System: Vero E6
- method-summary: cell viability relative to DMSO; higher = less toxic
- condition-set: 72 h; 1000 nM
One number for each entry, in %.

Here's what some known entries look like.
| compound | cell viability, % |
| --- | --- |
| CC(=O)/N=c1/[nH]c(C)c(-c2ccc(Cl)c(S(=O)(=O)NCCO)c2)s1 [PIK-93] | 96.9 |
| CC[C@H](C)[C@H]1O[C@]2(CC[C@@H]1C)C[C@@H]1C[C@@H](C/C=C(\C)[C@@H](O[C@H]3C[C@H](OC)[C@@H](O[C@H]4C[C@H](OC)[C@@H](O)[C@H](C)O4)[C@H](C)O3)[C@@H](C)/C=C/C=C3\CO[C@@H]4[C@H](O)C(C)=C[C@@H](C(=O)O1)[C@]34O)O2 [ivermectin] | 103 |
| OC(CCN1CCCCC1)(c1ccccc1)c1ccccc1 [pridinol] | 93.8 |
| CC[C@]1(O)C[C@@H]2CN(CCc3c([nH]c4ccccc34)[C@@](C(=O)OC)(c3cc4c(cc3OC)N(C)[C@H]3[C@@](O)(C(=O)OC)[C@H](OC(C)=O)[C@]5(CC)C=CCN6CC[C@]43[C@@H]65)C2)C1 [Vinblastine (sulfate)] | 30.1 |
| CCOc1ccc(-c2ccc(Cn3c(CC(C)(C)C(=O)O)c(SC(C)(C)C)c4cc(OCc5ccc(C)cn5)ccc43)cc2)cn1 | 94 |

Moving on to another compound below.
Record Cc1ccc(S(=O)(=O)/C=C/C#N)cc1 [BAY-11-7082] . Reported cell viability: 92.6

====

- Tested on: A549-ACE2
- method-summary: drug-induced phospholipidosis relative to tamoxifen; higher = more phospholipidosis
- condition-set: 3.33333 µM; 72 h
Structures can show the parent of a compound that is named as a salt.
Kindly supply the reported drug-induced phospholipidosis values for the records listed here.
Give bare numbers, in %.

Here's what some known entries look like.
| molecule | drug-induced phospholipidosis (%) |
| --- | --- |
| C[C@@H](NCCCc1cccc(C(F)(F)F)c1)c1cccc2ccccc12 | 37.3 |
| CCCN1CCN(c2ccc(C(=O)NC3(C(=O)NCC#N)CCCCC3)cc2)CC1 | 1.07 |
| CNCc1ccc(-c2cc(-c3nc(-c4ccc(S(=O)(=O)C(C)C)cc4)cnc3N)on2)cc1 | 102 |

Would you mind giving drug-induced phospholipidosis for every molecule in the list below?
1. O=C(O)CCCCCCCC(=O)O
2. CNc1cc(OC)c(C(=O)NC2CCN(Cc3ccccc3)C2C)cc1Cl (stereo not drawn) [nemonapride]
3. CCSc1ccc2c(c1)N(CCCN1CCN(C)CC1)c1ccccc1S2
4. Cc1ccc(S(=O)(=O)/C=C/C#N)cc1

stdout:
1. 0.507
2. 14.4
3. 19.6
4. -2.01

Form: item CC/C(=C(\c1ccc(O)cc1)c1ccc(OCCNC)cc1)c1ccccc1 [Endoxifen HCl] ; test system A549-ACE2; drug-induced phospholipidosis: 55.2
